Reference source: ChEMBL document CHEMBL2046298

# Protocol summary: Cmax in CD-1 mouse at 10 mg/kg, po
# Type: ADME, organism-based
# Parameters: dose 10 mg/kg, route oral
# Assay setup: in vivo
Measurement name: Cmax (nM)

Prompt: Give its Cmax value. Item: COc1cc(N2CCC(CC(=O)N3CCOCC3)CC2)ccc1Nc1nc(NC2CCCCC2)c2nc[nH]c2n1
Completion: 1400

Prompt: Give its Cmax value. Item: COc1cc(N2CCC(N3CCOCC3)CC2)ccc1Nc1nc(NC2CCCCC2)c2nc[nH]c2n1
Completion: 2600

Prompt: Give its Cmax value. Item: COc1cc(N2CCC(CC(=O)N3CCCC3)CC2)ccc1Nc1nc(NC2CCCCC2)c2nc[nH]c2n1
Completion: 1800

a: COc1cc(N2CCN(S(=O)(=O)CCCN3CCOCC3)CC2)ccc1Nc1nc(NC2CCCCC2)c2nc[nH]c2n1
b: COc1cc(N2CCC(CN3CCOCC3)CC2)ccc1Nc1nc(NC2CCCCC2)c2nc[nH]c2n1
c: COc1cc(N2CCC(CC(=O)N3CCN(C)CC3)CC2)ccc1Nc1nc(NC2CCCCC2)c2[nH]cnc2n1
Prompt: Sort the molecules on Cmax; start with the lowest figure. Provide the labels, sequenced as the question asks.
Completion: c, a, b
(c: 300 nM, a: 1000 nM, b: 2600 nM)
